# Tested on: Huntingtin (HTT) transcripts
# test-summary: Quantitative splicing assay (HTT), qPCR
# Type: cell-based
# experimental-conditions: Homo sapiens; GM04724 (CAG 70/20) Huntington's disease patient lymphoblasts, 24 h, qPCR HTTex49_50; read-out: HTT Potency - Splicing: E49-50 EC50 (average)
pEC50: −log10 of the molar value.

>  <molecule>
Cn1cc(-c2cc(O)c(-c3ccc(O[C@@H]4C[C@H]5CCC[C@H](N5)[C@@H]4F)nn3)c(F)c2)cn1 (single isomer, unassigned)

>  <pEC50>
7.00 to 7.29

$$$$
>  <molecule>
Cn1cnc2cc(O)c(-c3ccc(O[C@H]4C[C@]5(C)CCC[C@@](C)(N5)[C@H]4F)nn3)cc2c1=O (single isomer, unassigned)

>  <pEC50>
6.30 to 7.00

$$$$
>  <molecule>
Cn1cnc2cc(O)c(-c3ccc(O[C@@H]4C[C@@]5(C)CCC[C@](C)(N5)[C@@H]4F)nn3)cc2c1=O (single isomer, unassigned)

>  <pEC50>
7.00 to 7.29

$$$$
>  <molecule>
Cn1cc(-c2cc(O)c(-c3ccc(O[C@H]4C[C@@H]5CCC[C@@H](N5)[C@H]4F)nn3)cc2Cl)cn1 (single isomer, unassigned)

>  <pEC50>
7.00 to 7.29

$$$$
>  <molecule>
Cn1ccc2cc(-c3ccc(O[C@H]4C[C@]5(C)CCC[C@@](C)(N5)[C@H]4F)nn3)c(O)cc2c1=O (single isomer, unassigned)

>  <pEC50>
7.30 to 7.80

$$$$
>  <molecule>
Cn1cc(-c2ccc(-c3ccc(O[C@@H]4C[C@@]5(C)CCC[C@](C)(N5)[C@@H]4F)nn3)c(O)c2)cn1 (single isomer, unassigned)

>  <pEC50>
7.30 to 7.80

$$$$
>  <molecule>
Oc1cc(-c2ccn3ccnc3c2)ccc1-c1ccc(O[C@@H]2C[C@H]3CCC[C@H](N3)[C@@H]2F)nn1 (single isomer, unassigned)

>  <pEC50>
5.00 to 6.30

$$$$
>  <molecule>
Cc1ccc(-c2ccc(-c3ccc(O[C@H]4C[C@@H]5CCC[C@@H](N5)[C@H]4F)nn3)c(O)c2)nn1 (single isomer, unassigned)

>  <pEC50>
5.00 to 6.30

$$$$
>  <molecule>
Oc1cc(-c2cn[nH]c2)ccc1-c1ccc(O[C@H]2C[C@@H]3CC[C@@H](N3)[C@@H]2F)nn1 (single isomer, unassigned)

>  <pEC50>
7.30 to 7.80

$$$$
>  <molecule>
Cn1ccc(-c2ccc(-c3ccc(O[C@@H]4C[C@H]5CCC[C@H](N5)[C@@H]4F)nn3)c(O)c2)n1 (single isomer, unassigned)

>  <pEC50>
7.30 to 7.80

$$$$
>  <molecule>
Cn1ccc2cc(O)c(-c3ccc(O[C@@H]4C[C@H]5CC[C@H](N5)[C@@H]4F)nn3)cc2c1=O (single isomer, unassigned)

>  <pEC50>
7.00 to 7.29

$$$$
>  <molecule>
Oc1cc(-c2cn[nH]c2)c(F)cc1-c1ccc(O[C@H]2C[C@@H]3CCC[C@@H](N3)[C@H]2F)nn1 (single isomer, unassigned)

>  <pEC50>
7.82 to 11.00

$$$$
>  <molecule>
Cn1ccc2cc(O)c(-c3ccc(O[C@@H]4C[C@@]5(C)CC[C@](C)(N5)[C@@H]4F)nn3)cc2c1=O (single isomer, unassigned)

>  <pEC50>
7.30 to 7.80

$$$$
